Cited source for all entries: the supplement of paper PMC13380429

Test system: HepG2
Experiment: cell viability relative to DMSO; higher = less toxic
Conditions: 72 h; 1 nM
Structures can show the parent of a compound that is named as a salt.
Catalogue of cell viability readings, one per entry.
MEASURED ENDPOINT: cell viability (%)

1. O=C(O)C1(C(=O)O)CCC1.[NH2-].[NH2-].[Pt+2]
106
2. Nc1nc(NC2CC2)c2ncn([C@H]3C=C[C@@H](CO)C3)c2n1 [ABACAVIR SULFATE]
101
3. CC1(C)[C@@H](OC(=O)CCC(=O)O)CC[C@]2(C)[C@H]3C(=O)C=C4[C@@H]5C[C@@](C)(C(=O)O)CC[C@]5(C)CC[C@@]4(C)[C@]3(C)CC[C@@H]12 [CARBENOXOLONE SODIUM]
97.8
4. O=C(Nc1cc(C(F)(F)F)cc(C(F)(F)F)c1)c1cc(Cl)ccc1O
99.6
5. CC[C@@H]1C(=O)OC[C@@H]1Cc1cncn1C
97.7
6. COC(=O)c1ccc2c(c1)nc(NC(=O)c1ccccc1)n2CCCc1ccccc1
109
7. CN1C(C)(C)CCCC1(C)C
96
8. CCc1cc(O)c(Oc2ccc(C(N)=O)cc2F)cc1F
110
9. COc1ccsc1CNCC[C@@]1(c2ccccn2)CCOC2(CCCC2)C1
105
10. N=C(N)NCc1cccc(I)c1
104
11. N=C(N)Nc1ccc(Cl)cc1
99.6
